Quick list: activity, negative = inhibition per entry.
biological target: Cytochrome P450 2C19 (Homo sapiens) (UniProt P33261); test: Cytochrome panel assay with activity outcomes; conditions: recombinant CYP, pro-luciferin dealkylation, luminescence, p450-cyp2c19; series mostly up to 57.1 µM; as to activity, negative = inhibition: % is scaled to controls: 0 for no effect and ±100 for the full control effect
Sequence (P33261 whole entry, looked up): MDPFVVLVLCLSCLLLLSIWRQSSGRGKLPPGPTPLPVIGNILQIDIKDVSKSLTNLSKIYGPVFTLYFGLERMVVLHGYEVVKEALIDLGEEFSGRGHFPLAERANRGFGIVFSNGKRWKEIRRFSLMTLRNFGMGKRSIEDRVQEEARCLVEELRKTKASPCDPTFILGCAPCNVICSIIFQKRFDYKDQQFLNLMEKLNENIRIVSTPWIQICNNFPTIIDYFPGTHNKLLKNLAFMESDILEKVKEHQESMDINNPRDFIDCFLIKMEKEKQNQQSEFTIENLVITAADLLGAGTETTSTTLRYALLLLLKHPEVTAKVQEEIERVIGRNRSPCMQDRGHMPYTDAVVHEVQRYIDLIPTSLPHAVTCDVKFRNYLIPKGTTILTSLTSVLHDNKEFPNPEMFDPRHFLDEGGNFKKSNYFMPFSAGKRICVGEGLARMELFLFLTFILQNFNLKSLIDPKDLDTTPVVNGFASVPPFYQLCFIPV
Among all 16,000 compounds or so, about 5,800 (36%) were called active. Not shown: some 23% with an inconclusive outcome. Some of the results follow.
Measured Parameter: activity, negative = inhibition

> print(dat)
                         compound.structure                 recorded.result
1                     c1cncc(CNCc2cccnc2)c1   5.45% [at 11.4 µM] (inactive)
2              OCCn1cnc2c(SCc3ccccc3)ncnc21   12.6% [at 11.4 µM] (inactive)
3           O=C(O)C(=O)/C=C(\O)c1ccc(Br)cc1     29% [at 11.4 µM] (inactive)
4        c1cc2c(cc1C(N1CCNCC1)N1CCNCC1)OCO2   14.2% [at 11.4 µM] (inactive)
5  COC(=O)[C@@H]1CC[C@H](C)[C@@H](c2ccc(C)cc2)N1C(=O)c1ccc(/C=N\O[C@@H](C)c2cn([C@H]3COC[C@H]3O)nn2)cc1  -29.4% [at 11.4 µM] (inactive)

* * *

target: Cytochrome P450 2C19 (Homo sapiens) (UniProt P33261); assay: Cytochrome panel assay with activity outcomes; conditions: recombinant CYP, pro-luciferin dealkylation, luminescence, p450-cyp2c19; series mostly up to 57.1 µM
Among all 16,000 compounds or so, about 5,800 (36%) were called active. Not shown: some 23% with an inconclusive outcome. The call rests on the fitted dose curve; in most records, active means well fitted curve in the direction sought with a large enough effect; inconclusive means small, poorly fitted or top-dose-only effect, or effect the other way; inactive means no such curve, though single readings can be large or run the other way. The list shows a part of the results.
Outcomes: true for active, false for inactive

> print(dat)
                                    molecule  class
 1           CC(=O)N1CCC2(CC1)CN(c1ccccn1)C2  false
 2  CCCNC(=O)N1N=C(c2ccc(N)cc2)c2cc3c(cc2[C@H]1C)OCO3  false
 3  O=C(Oc1ccccc1)N1CCC[C@@]2(CCN(c3ccccn3)C2)C1   true
 4  O=C(c1ccco1)N1CCC2(CC1)CCN(c1cccc(-c3ccccc3)c1)CC2   true
 5  Cn1c(=O)c2cc(S(=O)(=O)NCCC(=O)Nc3ccc(Cl)cc3)ccc2n(C)c1=O  false
 6  O=C(c1cc(C(F)(F)F)cc(C(F)(F)F)c1)N1CCC[C@@]2(CCN(c3ccccn3)C2)C1  false
 7   O=C(Oc1ccccc1)N1CCC2(CC1)CN(c1ncccn1)C2  false
 8     COC(=O)N1CCC[C@@]2(CCN(c3ncccn3)C2)C1  false
 9  O=C(c1cnccn1)N1CCC[C@@]2(CCN(c3ccccn3)C2)C1  false
10    CCOc1ccccc1NC(=O)CSc1nnc(-c2cnccn2)n1C   true
11  N[C@H](Cn1ccc(=O)n(Cc2ccccc2C(=O)O)c1=O)C(=O)O  false
12          Cc1cc(C(C)(C)C)cc(CNC2CCCCC2)c1O   true
13  N[C@@H](Cn1ccc(=O)n(Cc2ccccc2C(=O)O)c1=O)C(=O)O   true
14  COc1ccc(NC(=O)N2CC3(CCN(C(=O)c4ccc(OC)cc4)CC3)C2)cc1  false
15    c1ccc(-c2cccc(N3CCC4(CCNCC4)CC3)c2)cc1  false
16           CCOc1ccc2nc(SCc3ccccc3C#N)sc2c1   true
17        Cc1nn(C)c(Cl)c1NC(=O)OCc1ccc(F)cc1   true
18  O=C1C(Cl)=C(Sc2nnc3c4ccccc4c4ccccc4c3n2)C(=O)c2ccccc21   true
19  CS(=O)(=O)N1N=C(c2ccc(Br)cc2)CC1c1ccc2c(c1)OCO2 (centres undefined)   true
20     O=C(/C=C\C=C/c1ccc2c(c1)OCO2)N1CCCCC1  false
21  COc1ccc(C(C(=O)NC2CCCC2)N(C(=O)c2snc(-c3ccc(F)cc3)c2N)c2ccc(F)cc2)cc1 (centres undefined)  false
22    Cn1cccc1C(=O)N1CCC2(CC1)CN(c1ccncc1)C2   true
23  Cn1c(C(=O)N2COCC2(C)C)cc2c(=O)n3ccccc3nc21  false
24  CCCN(CCC)CCNC(=O)C1CCCN(S(=O)(=O)c2ccc3c(c2)oc(=O)n3C)C1 (centres undefined)  false
25  CCCCCCCC/C=C\CCCCCCCC(=O)NCc1ccc(O)c(OC)c1  false
26                 CCOC(=O)N/N=C/c1ccc(F)cc1  false
27    Cn1cccc1C(=O)N1CCC2(CC1)CN(c1ccccn1)C2  false
28  O=C(c1ccco1)N1CCC[C@@]2(CCN(c3ccncc3)C2)C1  false
29      CC(=O)N1CCC[C@@]2(CCN(c3ccncc3)C2)C1  false
30         Cc1ccc(Nc2nc(Cl)nc(N(C)C#N)n2)cc1   true
31  COc1ccccc1CN1CCC2(CC1)CCN(C(=O)c1c(C)noc1C)CC2  false
32  O=C(Oc1ccccc1)N1CCC2(CCCN(c3ccccn3)C2)CC1   true
33  COc1ccc(C[C@H](N)C(=O)N[C@@H]2[C@H](O)[C@H](n3cnc4c(N(C)C)ncnc43)O[C@@H]2CO)cc1  false
34  O=C(c1ccncc1)N1CCC[C@@]2(CCN(c3ccccn3)C2)C1   true
35  Cc1ccccc1NC(=O)C(C)c1cccc(C(=O)c2ccccc2)c1 (centres undefined)   true
36       C[C@@H](COc1ccccc1)N(CCCl)Cc1ccccc1   true
37   O=C(c1ccco1)N1CCC2(CCCN(c3ccccc3)C2)CC1  false
38   COc1ccc(NC(=O)c2cccs2)c([N+](=O)[O-])c1  false
39  CCOC(=O)c1ccc(NC(=O)C2(c3ccc(OC)cc3)CCOCC2)cc1   true
